The measurements presented in this section are drawn from patent US20250042994A1.

Tested On: T1, Human CD19-his protein (human, UniProt P15391 20-291)
T1 construct: bought protein; also called human CD19 protein; recombinant human CD19-His; not shown: His tag
T1 sequence (looked up): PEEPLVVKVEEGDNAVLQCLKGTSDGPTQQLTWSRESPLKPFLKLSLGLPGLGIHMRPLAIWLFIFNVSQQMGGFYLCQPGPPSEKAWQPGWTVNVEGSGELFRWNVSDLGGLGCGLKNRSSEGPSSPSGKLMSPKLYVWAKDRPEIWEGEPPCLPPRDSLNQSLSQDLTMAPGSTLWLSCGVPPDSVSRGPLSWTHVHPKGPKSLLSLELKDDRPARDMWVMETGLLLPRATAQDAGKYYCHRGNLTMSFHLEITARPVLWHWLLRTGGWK
Protocol Text: ELISA on coated human CD19-His
Assignment: determine reported EC50 (read off the curve) for the given binders.

Reported EC50 (read off the curve) for F5.8.6 (antibody, human IgG1, V domains shown, human-murine chimeric antibody, human IgG1) VH: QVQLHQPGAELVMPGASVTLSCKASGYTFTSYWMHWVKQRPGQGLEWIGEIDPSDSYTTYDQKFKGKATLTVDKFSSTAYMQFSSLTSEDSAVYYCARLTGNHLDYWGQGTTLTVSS VL: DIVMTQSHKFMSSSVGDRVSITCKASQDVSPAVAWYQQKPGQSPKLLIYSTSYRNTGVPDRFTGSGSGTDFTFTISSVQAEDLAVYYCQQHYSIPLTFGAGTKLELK was ~0.4 nM

Reported EC50 (read off the curve) for F4.145.9 (antibody, human IgG1, V domains shown, human-murine chimeric antibody, human IgG1) VH: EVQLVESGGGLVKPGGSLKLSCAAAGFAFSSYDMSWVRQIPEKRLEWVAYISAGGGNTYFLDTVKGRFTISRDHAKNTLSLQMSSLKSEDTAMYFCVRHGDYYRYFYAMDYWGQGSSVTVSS VL: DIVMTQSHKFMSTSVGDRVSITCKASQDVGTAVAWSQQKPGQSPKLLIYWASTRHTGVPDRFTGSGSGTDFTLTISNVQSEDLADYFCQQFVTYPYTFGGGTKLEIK was ~0.06 nM

Reported EC50 (read off the curve) for F3.113.16 (antibody, human IgG1, V domains shown, human-murine chimeric antibody, human IgG1) VH: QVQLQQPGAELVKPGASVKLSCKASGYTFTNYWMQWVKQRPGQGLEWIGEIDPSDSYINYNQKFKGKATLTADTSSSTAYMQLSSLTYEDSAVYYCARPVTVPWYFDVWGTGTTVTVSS VL: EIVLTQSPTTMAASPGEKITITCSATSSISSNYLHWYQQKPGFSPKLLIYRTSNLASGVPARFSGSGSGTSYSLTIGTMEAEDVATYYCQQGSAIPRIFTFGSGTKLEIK was ~0.5 nM
